experiment: in vitro; conditions: human, Caco-2, Caco-2 (cm/sec)
Where a SMILES comes first, the peptide text is derived from it. Bridges are numbered along the chain shown (N, C = ends). [ ]: non-standard residue; d: D form. The star is where a group is joined. NMehPhe = CN[C@@H](CCc1ccccc1)C(=O)O; NMeF = CN[C@@H](Cc1ccccc1)C(=O)O; Butyl(3-Me,3-OH) = CC(C)(O)CC*; NMeL = CN[C@@H](CC(C)C)C(=O)O; NMeA = CN[C@@H](C)C(=O)O; Piperidide = C1CCN(*)CC1; Sar = CNCC(=O)O
outcomeMeasure: Papp

So what does the record say about Papp for CC(C)C[C@@H]1NC(=O)[C@H](Cc2ccccc2)N(C)C(=O)[C@H](CC(C)C)N(C)C(=O)[C@H](COCCC(C)(C)O)NC(=O)[C@H](C)N(C)C(=O)C[C@@H](C(=O)N2CCCCC2)NC(=O)[C@H](CC(C)C)N(C)C(=O)CN(C)C(=O)[C@H]([C@@H](C)O)NC(=O)[C@H](CC(C)C)N(C)C(=O)[C@H](CCc2ccccc2)N(C)C1=O [AP55] ([NMeA]S(Butyl(3-Me,3-OH))[NMeL][NMeF]L[NMehPhe][NMeL]T[Sar][NMeL]D-Piperidide; lactam N-11) ?
1.3 ×10⁻⁶ cm/s

The measured values listed here are drawn from patent US20230096766A1.
